# Ki values compiled below
- system-name: human cathepsin V (Homo sapiens)
- Sequence (O60911 114-334): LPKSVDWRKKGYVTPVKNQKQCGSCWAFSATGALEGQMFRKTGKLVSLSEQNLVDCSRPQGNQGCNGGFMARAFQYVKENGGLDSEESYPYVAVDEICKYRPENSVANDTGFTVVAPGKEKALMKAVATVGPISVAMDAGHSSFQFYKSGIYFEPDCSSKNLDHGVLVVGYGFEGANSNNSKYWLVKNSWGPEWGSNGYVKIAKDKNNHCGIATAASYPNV
- assay-info: Cathepsin V inhibition assay, fluorogenic substrate Cbz-Phe-Arg-AMC
- measurement-parameters: Table 2; human recombinant enzyme, pH 5.5, 30° C., 2 μM substrate; read-out: hCat V Ki

// below: answered compounds
In [3]: df
Out[3]:
                                   compound  recorded_metric  reported_result
0  CCCC[C@H](NC(=O)O[C@H](Cc1nnc(-c2ccc(F)cc2)o1)C(C)(C)C)C(=O)C(=O)Nc1ccnn1C (stereo in doubt)               Ki  100 to 10000 nM
1  CCCC[C@H](NC(=O)O[C@H](Cn1cnc2cc(Cl)c(Cl)cc21)C(C)(C)C)C(=O)C(=O)Nc1ccn[nH]1               Ki     0.01 to 1 nM
2  CCCC[C@H](NC(=O)O[C@H](c1nnc(-c2ccc(C(F)(F)F)cc2)o1)C(C)(C)C)C(=O)C(=O)NN1CCOC1=O               Ki      1 to 100 nM

Data request: // Ki lookup, key: CCCC[C@H](NC(=O)O[C@H](Cn1ccc(-c2ccc(C(F)(F)F)cc2)n1)C(C)(C)C)C(=O)C(=O)Nc1ccn[nH]1
Data returned: 0.01 to 1 nM

---

- system-name: human cathepsin K (Homo sapiens, UniProt P43235)
- Construct: The proform of cathepsin K was converted to mature cathepsin K by brief exposure to pH 4; made in house; host or cells: baculovirus; Trichoplusia ni High Five cells (virus raised in Sf-9)
- Sequence (P43235 115-329): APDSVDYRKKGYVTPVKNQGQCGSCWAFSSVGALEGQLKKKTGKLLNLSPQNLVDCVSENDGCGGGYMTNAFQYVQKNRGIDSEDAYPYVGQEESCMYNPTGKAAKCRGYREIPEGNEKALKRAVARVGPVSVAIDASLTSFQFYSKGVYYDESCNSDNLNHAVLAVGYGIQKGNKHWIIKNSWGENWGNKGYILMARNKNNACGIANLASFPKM
- assay-info: Cathepsin K inhibition assay, fluorogenic substrate Cbz-Phe-Arg-AMC, progress curve method
- Type: biochemical
- measurement-parameters: Table 1; human recombinant enzyme, pH 5.5, 30° C., 10 μM substrate; read-out: hCat K Ki
recorded-metric: Ki

                                        smi  reported_result
0  CCCC[C@H](NC(=O)O[C@H](Cn1ccc(-c2ccc(C(F)(F)F)cc2)n1)C(C)(C)C)C(=O)C(=O)NCc1ccno1      1 to 100 nM

Data request: // Ki lookup, key: CCCC[C@H](NC(=O)O[C@H](Cn1nccc1-c1ccc(C(F)(F)F)cc1)C(C)(C)C)C(=O)C(=O)Nc1ccn[nH]1
Data returned: 0.01 to 1 nM

Data request: // Ki lookup, key: CCCC[C@H](NC(=O)O[C@H](Cn1ccc(-c2ccncc2)n1)C(C)(C)C)C(=O)C(=O)Nc1ccn[nH]1
Data returned: 0.01 to 1 nM

Data request: // Ki lookup, key: CCCC[C@H](NC(=O)O[C@@H](c1cccc(-c2ccccc2)c1)C(C)(C)C)C(=O)C(=O)Nc1ccn[nH]1
Data returned: 100 to 10000 nM

Data request: // Ki lookup, key: CCCC[C@H](NC(=O)O[C@H](Cn1ccc(-c2ccc(C(F)(F)F)cc2)n1)C(C)(C)C)C(=O)C(=O)Nc1ccn[nH]1
Data returned: 0.01 to 1 nM

Data request: // Ki lookup, key: CCCC[C@H](NC(=O)O[C@H](Cn1ccc(-c2ccc(C(F)(F)F)cc2)n1)C(C)(C)C)C(=O)C(=O)Nc1ccccn1
Data returned: 1 to 100 nM

Data request: // Ki lookup, key: CCCC[C@H](NC(=O)O[C@H](Cc1nnc(-c2ccc(F)cc2)o1)C(C)(C)C)C(=O)C(=O)Nc1ccccn1
Data returned: 100 to 10000 nM
